Test system: PPARg:RXRa IVT, anti-PPARg (NR concentration 270 nM, RXRa partner concentration 90 nM)
Experiment: PBM binding z-score (relative to random genomic background probes); higher = stronger binding; sequences stand for … in GC…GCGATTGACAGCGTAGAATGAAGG
measured-endpoint: PBM binding z-score
One number for each entry.

Guide cases for PBM binding z-score, answers given:
>>> df
                     ordered_residues    measured_endpoint  assay_result
0  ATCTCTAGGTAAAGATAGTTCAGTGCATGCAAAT  PBM binding z-score          1.49
1  GCGACTGGGGCAAAGCAGCTTACCATAAGGTTGG  PBM binding z-score          3.13

Return reported PBM binding z-score values for all items listed beneath this line.
1. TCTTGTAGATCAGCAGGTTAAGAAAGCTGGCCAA
2. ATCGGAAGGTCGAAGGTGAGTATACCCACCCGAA
3. CAAACTAGGTCACGAAAGGTCAAAGTAGAATGAC
4. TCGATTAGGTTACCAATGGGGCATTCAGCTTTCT

1. 0.491
2. 1.53
3. 9.02
4. 1.4
